# Tested on: Escherichia coli
# EXPERIMENT: Antibacterial activity against Escherichia coli at 50 ug/ml after 24 hr by agar diffusion method
# Type: functional
# COND: read-out: DIZ
MEASUREMENT KIND: zone of inhibition at 50 µg/mL
Write the numeric value and append its unit.

Q: So what does the record say about zone of inhibition at 50 µg/mL for Cc1cc(=O)oc2cc(OCC(=O)NNS(=O)(=O)c3ccc(C(F)(F)F)cc3)ccc12 ?
Result: 13 mm

Q: Same again, this time with COc1ccc2c(CNc3ccc4c(C)cc(=O)oc4c3)cc(=O)oc2c1
Result: 12 mm

Q: Same again, this time with Cc1cc(=O)oc2cc(OCC(=O)NNS(=O)(=O)c3ccc(F)cc3)ccc12
Result: 12 mm

Q: Same again, this time with Cc1cc(=O)oc2cc(OCC(=O)NNS(=O)(=O)c3ccc(Br)cc3)ccc12
Result: 12 mm

Q: Same again, this time with Cc1cc(=O)oc2cc(OCC(=O)NNS(=O)(=O)c3cccc([N+](=O)[O-])c3)ccc12
Result: 13 mm

Q: Same again, this time with CCOC(=O)c1oc2cc(OC)ccc2c1CNc1ccc2c(C)cc(=O)oc2c1
Result: 11 mm

Q: Same again, this time with Cc1ccc(S(=O)(=O)NNC(=O)COc2ccc3c(C)cc(=O)oc3c2)cc1
Result: 11 mm

Q: Same again, this time with Cc1cc(=O)oc2cc(OCC(=O)NNc3ccnc4c(Cl)cccc34)ccc12
Result: 13 mm

Q: Same again, this time with COc1ccc2c(CNc3ccc4c(C)cc(=O)oc4c3)c(Br)c(=O)oc2c1
Result: 11 mm

Q: Same again, this time with Cc1cc(=O)oc2cc(OCC(=O)NNS(=O)(=O)c3ccc(Cl)cc3)ccc12
Result: 12 mm
